# test-details: qHTS assay to identify small molecule agonists of the endoplasmic reticulum stress response signaling pathway (AID 1159516)
# experimental-setup: ESRE-bla HeLa, ER stress beta-lactamase reporter, 5 h; series mostly up to 61 µM
Inconclusive results are not listed. Calls of active or inactive are those of the source. Calls follow the shape of the dose curve; as a rule, active = well fitted activation curve with a large enough effect in the signal ratio in the repeat runs (not every such curve was filed as active); inconclusive = weak or mixed curves, or effect the other way; inactive = flat fitted curve, though single readings scatter; the % refers to the signal ratio.

| compound | outcome |
| --- | --- |
| CC(=O)N[C@@H](CS)C(=O)O | inactive |
| C=C(C)C1CC=C(C)C(OC(C)=O)C1 (stereo unspecified) | inactive |
| CCC(=O)/C=C/C1C(C)=CCCC1(C)C (stereo unspecified) | inactive |
| O=C(O)c1cc(Cl)cc(Cl)c1 | inactive |
| C=CS(=O)(=O)O | inactive |
| CNCCC(Oc1ccc(C(F)(F)F)cc1)c1ccccc1 (stereo unspecified) | inactive |
| CN1C(=O)c2ccc([N+](=O)[O-])cc2C1=O | inactive |
| CC(C)C(=O)c1c(C(C)C)nn2ccccc12 | inactive |
| O=C(O)c1cn(-c2ccc(F)cc2)c2cc(N3CCNCC3)c(F)cc2c1=O | inactive |
| Cc1cc(C(C)(C)C)c(O)c(C(C)(C)C)c1 | inactive |
| C=CC(=O)OCCCCCCOC(=O)C=C | inactive |
| O=Cc1ccc(Cl)cc1 | inactive |
| COc1ccc(COC(C)=O)cc1 | inactive |
| OCC(CO)N[C@H]1C[C@](O)(CO)[C@@H](O)[C@H](O)[C@H]1O | inactive |
| CC(=O)Nc1ccc(C(=O)CCl)cc1 | inactive |
| CCCCOCCOC(=O)c1ccccc1C(=O)OCCOCCCC | inactive |
| CC1=CC(=O)c2ccccc2C1=O | inactive |
| NC(N)=NC(=O)Cc1c(Cl)cccc1Cl | inactive |
| O=C1NCC2(CCN(CCc3ccccc3)CC2)O1 | inactive |
| CC1=C(C=O)C(C)(C)CC=C1 | inactive |
| CC(C)CCOC(=O)c1ccc(N(C)C)cc1 | inactive |
| CCCCCCCCCCCCCCCCCl | inactive |
| CC(C)(C)NC(=O)[C@@H]1CN(Cc2cccnc2)CCN1C[C@@H](O)C[C@@H](Cc1ccccc1)C(=O)N[C@H]1c2ccccc2C[C@H]1O | inactive |
| NC12CC3CC(CC(C3)C1)C2 | inactive |
| CC(C)(C)c1ccccc1 | inactive |
| CCCCCCCCCCCC[N+](C)(C)C | inactive |
| COc1nc(C)nc(Cl)c1NC1=NCCN1 | inactive |
| NCCO | inactive |
| CCc1ccc(C(c2ccc(CC)cc2)C(Cl)Cl)cc1 | inactive |
| O=S(=O)(O)c1ccc2nc(-c3ccccc3)[nH]c2c1 | inactive |
| COC(=O)/C=C/c1ccccc1 | inactive |
| OCCOCCN1CCN(C(c2ccccc2)c2ccc(Cl)cc2)CC1 (stereo unspecified) | inactive |
| CCCOC(=O)c1cc(O)c(O)c(O)c1 | inactive |
| c1cnc2cc3c(cc2n1)C1CNCC3C1 | inactive |
| C#CC(C)(CC)OC(=O)c1ccccc1C(=O)O (stereo unspecified) | inactive |
| C1COC(NC(C2CC2)C2CC2)=N1 | inactive |
| Nc1ccc(O)cc1 | inactive |
| CC(C)(C)NCC(O)COc1ccccc1OCC1CCCO1 (stereo unspecified) | inactive |
| CC1COC(=O)O1 (stereo unspecified) | inactive |
| COC(c1ccccc1)(c1ccccc1)[C@H](Oc1nc(C)cc(C)n1)C(=O)O | inactive |
| CCc1cc(C(C)(C)C)c(O)c(C(C)(C)C)c1 | inactive |
| CC(N)=O | inactive |
| O=C(Oc1ccccc1)c1ccccc1O | inactive |
| CC(C(O)c1ccc(O)cc1)N1CCC(Cc2ccccc2)CC1 (stereo unspecified) | inactive |
| CC(=O)OCCOCCOCCOC(C)=O | inactive |
| COc1ccc(CCN2CCC(Nc3nc4ccccc4n3Cc3ccc(F)cc3)CC2)cc1 | inactive |
| Cc1cc(C2(c3cc(C)c(O)cc3C)OS(=O)(=O)c3ccccc32)c(C)cc1O | inactive |
| COC(=O)[C@H]1[C@H]2C[C@@H]3c4[nH]c5cc(OC)ccc5c4CCN3C[C@H]2C[C@@H](OC(=O)c2cc(OC)c(OC)c(OC)c2)[C@@H]1OC | inactive |
| CCCN[C@H]1CCc2nc(N)sc2C1 | inactive |
| CCn1cc(C(=O)O)c(=O)c2cc(F)c(N3CCNC(C)C3)c(F)c21 (stereo unspecified) | inactive |
| CCN(CC)C(=O)Nc1ccc(OCC(O)CNC(C)(C)C)c(C(C)=O)c1 (stereo unspecified) | inactive |
| CCC(C)(C)C(=O)O[C@H]1C[C@@H](C)C=C2C=C[C@H](C)[C@H](CC[C@@H]3C[C@@H](O)CC(=O)O3)[C@H]21 | inactive |
| O=C(O)CP(=O)(O)O | inactive |
| CCN1CCCC1CNC(=O)c1cc(S(=O)(=O)CC)c(N)cc1OC (stereo unspecified) | inactive |
| C=C(C)C(=O)O | inactive |
| CC(=O)CC(C)=O | inactive |
